- measurementNotes: Caco2 permeability
- Format: in vitro ADME
- assayContext: human, Caco-2; read-out: Caco2 Permeability Efflux Ratio (B2A/A2B)
measurementType: efflux ratio
// return a plain number; no unit text

Consider the molecule CC(C)c1ccc(C(=O)CN2CCN(c3ccc(C#N)nn3)CC2)cc1 and give its recorded efflux ratio.
0.5

Data provenance is paper PMC6199309.
